The reported measurements were obtained from paper doi:10.1101/362293v1.

Protein target, amino acids: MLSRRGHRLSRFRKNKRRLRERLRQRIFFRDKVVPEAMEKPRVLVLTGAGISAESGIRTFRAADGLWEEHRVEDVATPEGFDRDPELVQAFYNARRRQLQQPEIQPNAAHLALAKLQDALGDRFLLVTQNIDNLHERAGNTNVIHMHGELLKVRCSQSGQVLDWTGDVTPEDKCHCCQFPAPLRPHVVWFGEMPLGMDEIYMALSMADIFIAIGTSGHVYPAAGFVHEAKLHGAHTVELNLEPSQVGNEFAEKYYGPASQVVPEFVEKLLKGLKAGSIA
QUANTITY: pKd
API: returns pKd as number; meaning -log10 of concentration in mol/L.

-- ask Field request: pKd | item: Nc1nc2c(ncn2[C@@H]2O[C@@H]3CO[P@](=O)(O)O[C@H]4[C@@H](O)[C@H](n5cnc6c(=O)[nH]c(N)nc65)O[C@@H]4CO[P@](=O)(O)O[C@H]3[C@H]2O)c(=O)[nH]1 [c-di-GMP]
-- reply 4.67
